Biological target: Cyclin-K/Cyclin-dependent kinase 12 (Human)
Sequence (O75909 whole entry): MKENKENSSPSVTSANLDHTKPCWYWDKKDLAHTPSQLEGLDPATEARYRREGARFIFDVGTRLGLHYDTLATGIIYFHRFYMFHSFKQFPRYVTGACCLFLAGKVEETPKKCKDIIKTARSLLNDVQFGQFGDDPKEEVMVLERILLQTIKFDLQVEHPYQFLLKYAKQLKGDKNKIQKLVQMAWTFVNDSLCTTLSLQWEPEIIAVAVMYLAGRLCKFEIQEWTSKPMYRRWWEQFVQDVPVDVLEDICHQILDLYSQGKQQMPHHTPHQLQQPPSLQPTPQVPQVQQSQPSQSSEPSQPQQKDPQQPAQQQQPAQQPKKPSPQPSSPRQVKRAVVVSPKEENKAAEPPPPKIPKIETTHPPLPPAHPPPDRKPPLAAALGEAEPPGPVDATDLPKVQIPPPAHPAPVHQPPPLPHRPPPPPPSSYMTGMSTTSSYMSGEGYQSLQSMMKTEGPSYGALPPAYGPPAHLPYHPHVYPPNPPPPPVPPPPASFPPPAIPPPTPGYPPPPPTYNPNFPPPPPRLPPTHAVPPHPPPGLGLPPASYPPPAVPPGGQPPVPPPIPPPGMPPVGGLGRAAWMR
Sequence (Q9NYV4 whole entry): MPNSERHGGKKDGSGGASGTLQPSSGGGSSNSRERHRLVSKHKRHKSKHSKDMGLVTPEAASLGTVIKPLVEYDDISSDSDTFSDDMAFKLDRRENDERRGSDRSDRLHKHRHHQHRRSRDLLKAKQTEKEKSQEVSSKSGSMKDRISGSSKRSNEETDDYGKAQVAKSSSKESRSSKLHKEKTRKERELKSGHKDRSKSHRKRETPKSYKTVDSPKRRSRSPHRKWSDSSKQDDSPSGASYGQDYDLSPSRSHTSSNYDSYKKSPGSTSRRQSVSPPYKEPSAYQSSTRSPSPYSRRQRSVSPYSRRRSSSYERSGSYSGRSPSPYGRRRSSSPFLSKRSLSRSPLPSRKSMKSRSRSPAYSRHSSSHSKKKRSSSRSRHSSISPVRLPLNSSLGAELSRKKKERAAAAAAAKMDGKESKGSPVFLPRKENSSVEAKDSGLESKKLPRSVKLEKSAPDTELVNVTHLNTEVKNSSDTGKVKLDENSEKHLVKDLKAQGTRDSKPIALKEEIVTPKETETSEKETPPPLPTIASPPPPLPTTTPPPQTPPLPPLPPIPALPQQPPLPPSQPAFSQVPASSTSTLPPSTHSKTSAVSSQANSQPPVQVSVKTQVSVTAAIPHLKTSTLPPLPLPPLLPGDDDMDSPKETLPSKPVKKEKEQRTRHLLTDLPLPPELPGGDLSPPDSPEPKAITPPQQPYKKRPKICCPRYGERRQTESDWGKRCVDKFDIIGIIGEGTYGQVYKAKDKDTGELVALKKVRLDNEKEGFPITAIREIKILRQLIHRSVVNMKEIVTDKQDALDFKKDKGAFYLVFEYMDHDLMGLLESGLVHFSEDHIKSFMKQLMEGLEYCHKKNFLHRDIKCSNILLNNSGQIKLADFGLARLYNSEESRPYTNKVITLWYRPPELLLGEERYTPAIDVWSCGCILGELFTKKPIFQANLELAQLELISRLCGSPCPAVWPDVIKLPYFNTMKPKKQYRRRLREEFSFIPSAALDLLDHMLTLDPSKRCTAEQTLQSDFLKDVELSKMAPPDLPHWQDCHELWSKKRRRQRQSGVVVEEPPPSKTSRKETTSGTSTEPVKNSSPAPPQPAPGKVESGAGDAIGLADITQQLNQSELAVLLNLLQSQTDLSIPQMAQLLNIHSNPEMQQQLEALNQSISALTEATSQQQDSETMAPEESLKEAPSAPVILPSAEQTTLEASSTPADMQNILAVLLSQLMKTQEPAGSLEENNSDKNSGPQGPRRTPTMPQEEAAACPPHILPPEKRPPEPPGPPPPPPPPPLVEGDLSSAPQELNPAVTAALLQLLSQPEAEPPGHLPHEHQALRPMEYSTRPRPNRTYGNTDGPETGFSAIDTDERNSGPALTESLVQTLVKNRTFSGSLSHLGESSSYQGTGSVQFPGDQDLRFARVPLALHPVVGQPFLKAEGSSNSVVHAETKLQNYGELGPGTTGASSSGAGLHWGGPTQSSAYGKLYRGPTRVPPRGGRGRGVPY
Assay: CDK12/CycK High ATP Kinase Assay
From the text: […]
assay.metric: IC50 (nM)
// units = nM; emit number, no label

Here are 4 compounds together with their reported answers.
FC(F)(F)c1ccc(-c2nnc(CNc3nc(N4CCOCC4)nc4c(C(F)(F)F)cnn34)[nH]2)cn1 | 79.1
FC(F)(F)c1ccc(-c2cnc(CNc3nc(N4CCOCC4)nc4c(C(F)(F)F)cnn34)[nH]2)cn1 | 15.1
COc1ccc(-c2nnc(CNc3nc(N4CCOCC4)nn4c(C(F)(F)F)cnc34)[nH]2)cn1 | 41.6
COc1ccc(-c2cnc(CNc3nc(N4CCOCC4)nn4c(C(F)(F)F)cnc34)[nH]2)cc1 | 12.3

Moving on to another compound below.
[in] Could you share which IC50 value was measured for "FC(F)(F)Oc1ccc(-c2nnc(CNc3nc(N4CCOCC4)nc4c(C(F)(F)F)cnn34)[nH]2)cn1" ?
[out] 5.96

###

Examples of compounds with documented IC50 follow.
Target: Cyclin-T1/Cyclin-dependent kinase 9 (Homo sapiens, UniProt P50750)
Sequence (O60563 whole entry): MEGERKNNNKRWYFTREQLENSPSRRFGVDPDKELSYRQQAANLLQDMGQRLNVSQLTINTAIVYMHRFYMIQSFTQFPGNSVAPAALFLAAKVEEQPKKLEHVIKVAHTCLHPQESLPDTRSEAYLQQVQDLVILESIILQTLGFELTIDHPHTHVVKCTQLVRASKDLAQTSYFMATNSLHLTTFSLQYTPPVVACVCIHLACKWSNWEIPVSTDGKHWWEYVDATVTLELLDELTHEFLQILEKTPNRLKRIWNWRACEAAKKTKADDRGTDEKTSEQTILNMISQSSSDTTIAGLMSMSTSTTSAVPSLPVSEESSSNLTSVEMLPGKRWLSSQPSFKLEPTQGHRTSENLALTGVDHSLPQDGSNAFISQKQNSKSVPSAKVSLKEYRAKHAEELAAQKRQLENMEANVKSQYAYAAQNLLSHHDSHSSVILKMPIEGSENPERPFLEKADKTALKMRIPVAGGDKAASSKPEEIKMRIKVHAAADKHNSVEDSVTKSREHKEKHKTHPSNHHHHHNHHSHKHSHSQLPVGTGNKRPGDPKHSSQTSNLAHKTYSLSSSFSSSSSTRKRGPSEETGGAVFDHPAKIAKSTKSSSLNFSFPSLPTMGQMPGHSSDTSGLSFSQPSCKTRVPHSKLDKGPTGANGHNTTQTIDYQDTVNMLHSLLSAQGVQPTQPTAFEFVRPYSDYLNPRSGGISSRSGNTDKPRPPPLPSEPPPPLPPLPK
Sequence (P50750 whole entry): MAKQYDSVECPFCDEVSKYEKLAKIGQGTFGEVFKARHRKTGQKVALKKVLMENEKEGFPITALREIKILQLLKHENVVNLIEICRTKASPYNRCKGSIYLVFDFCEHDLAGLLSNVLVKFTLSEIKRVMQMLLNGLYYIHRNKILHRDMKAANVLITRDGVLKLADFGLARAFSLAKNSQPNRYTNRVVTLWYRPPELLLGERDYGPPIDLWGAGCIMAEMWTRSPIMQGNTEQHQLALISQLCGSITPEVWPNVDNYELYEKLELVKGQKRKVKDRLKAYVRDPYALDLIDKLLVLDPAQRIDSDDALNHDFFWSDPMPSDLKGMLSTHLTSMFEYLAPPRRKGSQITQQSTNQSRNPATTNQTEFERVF
Assay: CDK9/CycT1 High ATP Kinase Assay
Text: […]
// units = nM; emit number, no label

Here are 2 compounds together with their reported answers.
FC(F)(F)c1ccc(-c2cnc(CNc3nc(N4CCOCC4)nc4c(C(F)(F)F)cnn34)[nH]2)cn1 [US20250066370, Example 24] | 3560
COc1ccc(-c2cnc(CNc3nc(N4CCOCC4)nn4c(C(F)(F)F)cnc34)[nH]2)cc1 [US20250066370, Example 13] | 2780

Moving on to another compound below.
[in] Could you share which IC50 value was measured for COc1ccc(-c2nnc(CNc3nc(N4CCOCC4)nn4c(C(F)(F)F)cnc34)[nH]2)cn1 [US20250066370, Example 18] ?
[out] 340
